Sourced from ChEMBL document CHEMBL4342469

Readings of Ki for the listed compounds
assayNotes: Inhibition of Clostridium perfringens GUS pre-incubated for 5 to 30 mins before 4-methylumbelliferone beta-D-glucuronide substrate addition at pH 6.7
Numbers only; they are read as nM.

Previously resolved entries follow.
O=C(O)[C@H]1CNC[C@@H](O)[C@@H]1O : 16.1
CCCN1C[C@@H](O)[C@H](O)[C@@H](C(=O)O)C1 : 51800

Attention now shifts to the item below.
Query block: Using the record for CCC[C@@H]1NC[C@@H](O)[C@H](O)[C@H]1C(=O)O , report its Ki.
Result block: 179

* * *

assayNotes: Inhibition of Ruminococcus gnavus GUS pre-incubated for 5 to 30 mins before 4-methylumbelliferone beta-D-glucuronide substrate addition at pH […]
Parameters: species or system Mediterraneibacter gnavus
Readings of pKi for the listed compounds
# log scale: pKi equals minus log10 of the concentration in mol/L

Previously resolved entries follow.
CCC[C@@H]1NC[C@@H](O)[C@H](O)[C@H]1C(=O)O : 4.02
O=C(O)[C@H]1NC(=O)[C@H](O)[C@@H](O)[C@@H]1O : 6.55
O=C(O)[C@H]1NC[C@H](O)[C@@H](O)[C@@H]1O : 4.68
O=C(O)[C@H]1CNC[C@@H](O)[C@@H]1O : 7.30

Query block: Using the record for CCCN1C[C@@H](O)[C@H](O)[C@@H](C(=O)O)C1 , report its pKi.
Result block: 4.75

Query block: Using the record for O=C(O)[C@H]1OC(=O)[C@H](O)[C@@H](O)[C@@H]1O , report its pKi.
Result block: 4.39

* * *

assayNotes: Inhibition of Clostridium perfringens GUS pre-incubated for 5 to 30 mins before 4-methylumbelliferone beta-D-glucuronide substrate addition at pH 5.5
Readings of Ki for the listed compounds
Numbers only; they are read as µM.

CCCN1C[C@@H](O)[C@H](O)[C@@H](C(=O)O)C1 : 37.3
O=C(O)[C@H]1OC(=O)[C@H](O)[C@@H](O)[C@@H]1O : 4.51
O=C(O)[C@H]1CNC[C@@H](O)[C@@H]1O : 0.011

Query block: Using the record for O=C(O)[C@H]1NC[C@H](O)[C@@H](O)[C@@H]1O , report its Ki.
Result block: 12.3

Query block: Using the record for CCC[C@@H]1NC[C@@H](O)[C@H](O)[C@H]1C(=O)O , report its Ki.
Result block: 0.425

Query block: Using the record for O=C(O)[C@H]1NC(=O)[C@H](O)[C@@H](O)[C@@H]1O , report its Ki.
Result block: 0.101

* * *

assaySystem: Beta-glucuronidase (Bos taurus)
Sequence (A3KMY8 whole entry): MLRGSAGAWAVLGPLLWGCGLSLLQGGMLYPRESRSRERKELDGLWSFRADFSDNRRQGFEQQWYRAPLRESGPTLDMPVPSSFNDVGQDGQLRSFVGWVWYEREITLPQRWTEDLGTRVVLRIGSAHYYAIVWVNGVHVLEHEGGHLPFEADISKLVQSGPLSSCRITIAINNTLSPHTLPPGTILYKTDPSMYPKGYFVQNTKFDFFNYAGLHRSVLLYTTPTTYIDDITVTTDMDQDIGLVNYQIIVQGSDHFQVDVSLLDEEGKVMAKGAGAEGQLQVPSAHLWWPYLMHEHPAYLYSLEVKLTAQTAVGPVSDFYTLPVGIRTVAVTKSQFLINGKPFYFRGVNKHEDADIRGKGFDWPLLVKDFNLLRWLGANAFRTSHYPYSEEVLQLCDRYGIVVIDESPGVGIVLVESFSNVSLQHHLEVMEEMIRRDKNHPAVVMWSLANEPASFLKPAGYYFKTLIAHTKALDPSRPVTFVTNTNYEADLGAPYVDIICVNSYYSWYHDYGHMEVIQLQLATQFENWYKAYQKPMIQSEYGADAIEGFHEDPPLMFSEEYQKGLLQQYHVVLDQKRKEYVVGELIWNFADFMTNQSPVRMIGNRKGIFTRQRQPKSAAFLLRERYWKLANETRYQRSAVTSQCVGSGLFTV
assayNotes: Inhibition of bovine GUS pre-incubated for 5 to 30 mins before 4-methylumbelliferone beta-D-glucuronide substrate addition at pH 6.7
property: pKi
# log scale: pKi equals minus log10 of the concentration in mol/L

Previously resolved entries follow.
CCC[C@@H]1NC[C@@H](O)[C@H](O)[C@H]1C(=O)O : 5.23
O=C(O)[C@H]1CNC[C@@H](O)[C@@H]1O : 7.91

Query block: Using the record for CCCN1C[C@@H](O)[C@H](O)[C@@H](C(=O)O)C1 , report its pKi.
Result block: 4.21

* * *

Readings of Ki for the listed compounds
assayNotes: Inhibition of Bacteroides fragilis GUS pre-incubated for 5 to 30 mins before 4-methylumbelliferone beta-D-glucuronide substrate addition at pH 6.7
Numbers only; they are read as µM.

Previously resolved entries follow.
CCC[C@@H]1NC[C@@H](O)[C@H](O)[C@H]1C(=O)O : 3.66
CCCN1C[C@@H](O)[C@H](O)[C@@H](C(=O)O)C1 : 15.5

Attention now shifts to the item below.
Query block: Using the record for O=C(O)[C@H]1CNC[C@@H](O)[C@@H]1O , report its Ki.
Result block: 0.0036
